- test-target: T1, recombinant SARS-CoV-2 Spike RBD domain, Wuhan (SARS-CoV-2)
- T1 construct: also called RBD Wuhan
- run-description: ELISA on coated RBD
measured-property: Binding AUC
Reply: number alone, nothing else.

See these solved cases before continuing.
[[record]]
binder = "SPK002M B1 antibody (antibody, human IgG1, kappa, V domains shown) VH: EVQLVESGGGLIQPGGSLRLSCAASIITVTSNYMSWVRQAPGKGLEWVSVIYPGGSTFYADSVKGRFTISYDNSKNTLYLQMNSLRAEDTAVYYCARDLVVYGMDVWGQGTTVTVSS VL: EIVLTQSPGTLSLSPGERATLSCRASQSVSDSYLAWYQQKPGQAPRLLIYGASSRATGIPGRFSGSGSGTDFTLTISRLEPEDFAIYYCQYGVTFGGGTKVEIKR"
measured_property = "Binding AUC"
test_result = 31

[[record]]
binder = "SPK002M A1 antibody (antibody, human IgG1, kappa, V domains shown) VH: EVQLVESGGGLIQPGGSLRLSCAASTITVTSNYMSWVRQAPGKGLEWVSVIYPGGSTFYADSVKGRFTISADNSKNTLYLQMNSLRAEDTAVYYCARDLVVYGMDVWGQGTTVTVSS VL: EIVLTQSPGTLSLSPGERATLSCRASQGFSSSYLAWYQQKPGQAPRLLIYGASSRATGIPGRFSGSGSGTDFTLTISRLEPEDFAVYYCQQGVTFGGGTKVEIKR"
measured_property = "Binding AUC"
test_result = 33


Now take the following binder into account.
Record SPK002M C1 antibody (antibody, human IgG1, kappa, V domains shown) VH: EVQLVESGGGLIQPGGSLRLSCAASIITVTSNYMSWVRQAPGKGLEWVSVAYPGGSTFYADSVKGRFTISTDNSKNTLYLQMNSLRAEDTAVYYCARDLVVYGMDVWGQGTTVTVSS VL: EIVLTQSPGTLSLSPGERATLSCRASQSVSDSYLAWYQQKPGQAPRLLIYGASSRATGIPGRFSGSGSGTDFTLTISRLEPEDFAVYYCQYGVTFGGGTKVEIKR , field Binding AUC: 32
